target: CDK-2 kinase (Homo sapiens)
MEASURE NAME: IC50 (µM)

(P) O=C(c1ccc2ccccc2c1)c1cn(-c2ccccc2)nc1C1=Nn2c(S)nnc2SC1
(Q) O=C(c1ccc2ccccc2c1)c1cn(-c2ccccc2)nc1C1=Nn2c(nnc2-c2ccccc2)SC1
Qu. Could you kindly indicate whether P or Q has the higher IC50 value? To answer, give the label that identifies your chosen option.
Ans. P

* * *

biological target: EGFR kinase (Homo sapiens)
Sequence (P00533 25-1210): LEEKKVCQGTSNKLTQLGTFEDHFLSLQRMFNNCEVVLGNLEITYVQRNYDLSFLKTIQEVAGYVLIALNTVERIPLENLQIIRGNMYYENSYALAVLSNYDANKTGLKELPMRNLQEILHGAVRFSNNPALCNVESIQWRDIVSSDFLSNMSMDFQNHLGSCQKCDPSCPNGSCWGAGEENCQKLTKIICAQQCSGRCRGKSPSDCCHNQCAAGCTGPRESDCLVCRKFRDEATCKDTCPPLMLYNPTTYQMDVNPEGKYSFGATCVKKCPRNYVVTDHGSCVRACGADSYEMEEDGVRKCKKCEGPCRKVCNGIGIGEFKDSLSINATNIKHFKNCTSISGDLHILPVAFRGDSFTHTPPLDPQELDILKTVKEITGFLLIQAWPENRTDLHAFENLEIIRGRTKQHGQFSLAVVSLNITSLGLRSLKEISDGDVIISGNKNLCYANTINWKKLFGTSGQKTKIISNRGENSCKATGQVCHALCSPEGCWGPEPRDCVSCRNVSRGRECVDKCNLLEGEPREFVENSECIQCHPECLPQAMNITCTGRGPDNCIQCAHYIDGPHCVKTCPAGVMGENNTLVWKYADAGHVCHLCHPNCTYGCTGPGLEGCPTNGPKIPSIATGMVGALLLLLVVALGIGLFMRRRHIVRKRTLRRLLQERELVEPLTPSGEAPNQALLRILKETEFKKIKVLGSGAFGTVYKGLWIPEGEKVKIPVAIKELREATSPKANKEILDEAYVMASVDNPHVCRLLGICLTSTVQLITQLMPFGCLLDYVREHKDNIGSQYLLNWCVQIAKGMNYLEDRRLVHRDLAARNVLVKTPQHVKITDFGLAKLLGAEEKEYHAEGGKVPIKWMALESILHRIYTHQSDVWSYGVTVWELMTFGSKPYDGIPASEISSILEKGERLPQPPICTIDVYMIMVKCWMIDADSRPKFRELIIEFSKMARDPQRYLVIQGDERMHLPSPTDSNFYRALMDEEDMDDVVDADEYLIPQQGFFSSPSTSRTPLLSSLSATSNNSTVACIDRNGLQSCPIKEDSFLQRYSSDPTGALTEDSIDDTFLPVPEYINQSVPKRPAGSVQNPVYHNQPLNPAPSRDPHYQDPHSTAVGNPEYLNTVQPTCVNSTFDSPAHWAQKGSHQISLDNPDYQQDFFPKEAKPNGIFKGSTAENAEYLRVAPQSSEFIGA
MEASURE NAME: IC50 (µM)

given_smiles=O=C(c1ccc2ccccc2c1)c1cn(-c2ccccc2)nc1C1=Nn2c(nnc2-c2ccccc2)SC1 measure_name=IC50 unit_string=µM result_value=0.0717
given_smiles=O=C(c1ccc2ccccc2c1)c1cn(-c2ccccc2)nc1C1=Nn2c(S)nnc2SC1 measure_name=IC50 unit_string=µM result_value=0.0896

The measured values listed here are drawn from paper PMC10536063.
